As a worked illustration, we turn to MIC data collected for Proteus mirabilis 18.
observed property: MIC (µg/mL)

• CSC1=C(C(=O)O)N2C(=O)C(NC(=O)/C(=N\OCC(=O)O)c3csc(N)n3)C2SC1 (stereo not shown) [Compound (1)] = 0.05
• CCSC1=C(C(=O)O)N2C(=O)C(NC(=O)/C(=N\OCC(=O)O)c3csc(N)n3)C2SC1 (stereo not shown) [Compound (2)] = 0.025
• CCSC1=C(C(=O)O)N2C(=O)C(NC(=O)/C(=N\OCC(=O)O)c3nsc(N)n3)C2SC1 (stereo not shown) [(4)] = 0.2
• CCSC1=C(C(=O)O)N2C(=O)C(NC(=O)/C(=N\OCC(=O)O)c3nc(N)sc3Cl)C2SC1 (stereo not shown) [Compound (3)] = 0.05
